Each recorded value in this set is attributed to PubChem BioAssay AID1159580.

Experiment: chemical genetic growth profiling, strain panel (AID 1159580);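 further: tested at 20 µM; growth read once vehicle control cultures reached saturation at 30 °C; 1 = growth at the plate median or of vehicle wells; lower values mean less growth of the strain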
Details: S. cerevisiae deletion strains, growth OD, locus YDR001C, strain nth1, stronger effect = lower value
Screen size: about 5,500 compounds; about 2,000 (36%) were called active. Another 18% or so got no clear call; they are omitted. The list shows a part of the results.
Metric name: normalized growth
One number for each entry.

// query Fill in: normalized growth of C#CCCCCCCCCCCCC(O)CC(O)CO (stereo not given) is ___
// result 0.982

// query Fill in: normalized growth of C#CCCCCCCCCCCCC(O)CC(O)COC(C)=O (stereo not given) is ___
// result 0.999

// query Fill in: normalized growth of Cn1c(=O)c2[nH]cnc2n(C)c1=O is ___
// result 1.01

// query Fill in: normalized growth of COc1cc2occ(-c3ccccc3)c(=O)c2c(OC)c1C is ___
// result 0.967

// query Fill in: normalized growth of OCCOCCN1CCN(C2=Nc3ccccc3Sc3ccccc32)CC1 is ___
// result 1.01

Hey, can you go through the list below and give me normalized growth for every item?
1. CC(=O)OCC(OC(C)=O)C(OC(C)=O)C(OC(C)=O)C(OC(C)=O)C(COC(C)=O)OC(C)=O (stereo not given)
2. C#CCCCCCCCCCCCC(=O)CC(O)COC(C)=O (stereo not given)
3. O=S1OCC2C(CO1)C1(Cl)C(Cl)=C(Cl)C2(Cl)C1(Cl)Cl (stereo not given)
4. COc1cc(-c2coc3cc(OC)c(OC)c(OC)c3c2=O)cc(OC)c1OC
5. COc1cc(OC)c2c(=O)c(-c3ccccc3)coc2c1
6. CC(=O)Oc1c(C)cccc1C(=O)O
7. COC(=O)[C@@H]1OC(=O)[C@H]2O[C@@]23[C@@]1(C)CCC1[C@@]2(C)CCC(=O)C(C)(C)C2C[C@@H](OC(C)=O)[C@]13C (stereo not given in full)

// result
1. 0.99
2. 0.991
3. 0.974
4. 0.999
5. 0.994
6. 1.01
7. 0.983

Hey, can you go through the list below and give me normalized growth for every item?
1. Cc1cccc(Nc2ccccc2C(=O)O)c1C
2. O=C1[C@H](CCC(O)c2ccc(F)cc2)[C@@H](c2ccc(O)cc2)N1c1ccc(F)cc1 (stereo not given in full)
3. COc1ccc(CCN2CCC(Nc3nc4ccccc4n3Cc3ccc(F)cc3)CC2)cc1

// result
0.893
0.976
0.972
